Recorded values, source patent US20120101100A1.

Kindly supply the reported inhibition at 1 µM values for the records listed here.
biological target: S. aureus GyrB ATPase (Staphylococcus aureus); assay: S. aureus (SAU) GyrB ATPase inhibition, malachite green phosphate detection (E. coli GyrA + S. aureus GyrB); assay type: biochemical; conditions: compound concentration of 1.0 μM unless otherwise noted; average value where assay was carried out more than once; read-out: S. aureus (SAU) GyrB ATPase % Inhibition
Answer format: number, then unit.

Request the reported inhibition at 1 µM associated with CCNC(=O)Nc1cc(-c2nc(-c3ccccc3)cs2)c(-c2nc(-c3ncnn3C)c(-c3nnc(C)o3)s2)cn1
99%

Then what about the compound CCNC(=O)Nc1cc(-c2nc(-c3cnn(C)c3)cs2)c(-c2cc(-c3n[nH]c(=O)o3)cnc2OCC2CC2)cn1 ?
99%

Then what about the compound CCNC(=O)Nc1cc(-c2nc(C(F)(F)F)cs2)c(-c2cc(-c3nnc(C)o3)cnc2OC2CC(C)(C)N(C)C(C)(C)C2)cn1 ?
105%

Then what about the compound CCNC(=O)Nc1cc(-c2nc(C(F)(F)F)cs2)c(-c2cc(-c3nnc(C)o3)nc(N3CCOCC3)c2)cn1 ?
99%

* * *

Kindly supply the reported inhibition at 1 µM values for the records listed here.
biological target: S. aureus GyrB ATPase (Staphylococcus aureus, UniProt P0A0K8); experiment: S. aureus (SAU) GyrB ATPase inhibition, malachite green phosphate detection (E. coli GyrA + S. aureus GyrB); format: biochemical; settings: compound concentration of 1.0 μM unless otherwise noted; average value where assay was carried out more than once; read-out: S. aureus (SAU) GyrB ATPase % Inhibition
Sequence (P0A0K8 whole entry): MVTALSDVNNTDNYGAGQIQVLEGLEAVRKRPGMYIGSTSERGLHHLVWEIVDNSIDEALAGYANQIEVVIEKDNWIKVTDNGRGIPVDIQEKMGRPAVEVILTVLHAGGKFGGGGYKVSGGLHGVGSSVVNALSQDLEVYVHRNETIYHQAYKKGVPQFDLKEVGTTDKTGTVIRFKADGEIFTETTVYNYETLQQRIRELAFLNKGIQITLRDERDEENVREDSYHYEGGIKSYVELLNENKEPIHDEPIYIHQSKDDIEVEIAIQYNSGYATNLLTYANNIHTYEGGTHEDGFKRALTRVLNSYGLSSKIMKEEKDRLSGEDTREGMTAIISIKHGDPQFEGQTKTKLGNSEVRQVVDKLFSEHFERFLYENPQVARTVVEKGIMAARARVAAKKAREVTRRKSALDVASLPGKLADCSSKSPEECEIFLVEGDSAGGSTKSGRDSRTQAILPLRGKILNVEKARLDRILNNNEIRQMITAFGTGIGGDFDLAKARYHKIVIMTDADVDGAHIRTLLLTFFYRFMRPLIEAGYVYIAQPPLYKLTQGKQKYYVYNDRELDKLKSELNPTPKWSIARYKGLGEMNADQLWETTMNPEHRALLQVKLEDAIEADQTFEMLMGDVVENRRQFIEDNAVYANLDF
Sequence (P0AES4 whole entry, further chain): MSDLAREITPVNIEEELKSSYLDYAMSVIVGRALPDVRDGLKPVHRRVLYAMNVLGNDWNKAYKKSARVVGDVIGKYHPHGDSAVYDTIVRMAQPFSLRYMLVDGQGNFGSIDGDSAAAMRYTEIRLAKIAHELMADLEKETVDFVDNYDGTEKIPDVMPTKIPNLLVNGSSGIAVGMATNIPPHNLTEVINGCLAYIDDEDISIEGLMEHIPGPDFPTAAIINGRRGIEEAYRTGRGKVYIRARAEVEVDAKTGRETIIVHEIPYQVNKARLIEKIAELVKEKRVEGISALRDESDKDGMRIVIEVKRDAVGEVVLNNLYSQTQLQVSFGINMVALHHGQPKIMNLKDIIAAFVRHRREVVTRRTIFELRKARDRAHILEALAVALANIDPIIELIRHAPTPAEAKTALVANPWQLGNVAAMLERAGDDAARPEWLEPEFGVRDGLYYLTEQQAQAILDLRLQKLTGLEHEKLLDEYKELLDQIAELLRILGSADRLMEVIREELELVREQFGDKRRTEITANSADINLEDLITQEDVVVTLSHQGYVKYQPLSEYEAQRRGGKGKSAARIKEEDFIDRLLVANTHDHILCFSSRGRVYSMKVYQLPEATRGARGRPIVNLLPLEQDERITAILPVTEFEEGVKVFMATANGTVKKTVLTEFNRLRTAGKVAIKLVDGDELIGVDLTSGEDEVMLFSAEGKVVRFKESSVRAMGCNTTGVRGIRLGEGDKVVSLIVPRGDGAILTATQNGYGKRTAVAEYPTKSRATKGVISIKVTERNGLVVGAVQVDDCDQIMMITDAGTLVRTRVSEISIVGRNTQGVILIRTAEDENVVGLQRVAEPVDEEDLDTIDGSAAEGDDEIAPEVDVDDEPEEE

Form field: inhibition at 1 µM recorded for CCNC(=O)Nc1cc(-c2nc(-c3ccccc3)cs2)c(-c2ccnc(-c3n[nH]c(=O)o3)c2)cn1 [Example 95] with S. aureus GyrB ATPase (Staphylococcus aureus, UniProt P0A0K8) (enter value)
99%

Then what about the molecule CCNC(=O)Nc1cc(-c2nc(-c3ccccc3)cs2)c(-c2cc(OCC3CC3)nc(-c3n[nH]c(=O)o3)c2)cn1 [Example 85] ?
93%

Then what about the molecule CCNC(=O)Nc1cc(-c2nc(-c3ccccc3)cs2)c(-c2nc(-c3ncccn3)c(-c3nnc(C)o3)s2)cn1 [Example 98] ?
100%

Then what about the molecule O=C(NCC(F)(F)F)Nc1cc(-c2nc(C(F)(F)F)cs2)c(-c2cncc(-c3n[nH]c(=O)o3)c2)cn1 [Example 49] ?
99%

Then what about the molecule CCNC(=O)Nc1cc(-c2nc(C(F)(F)F)cs2)c(-c2cncc(-c3nn(C(C)=O)c(=O)o3)c2)cn1 [Example 161] ?
97%

Then what about the molecule CCNC(=O)Nc1cc(-c2nc(C(F)(F)F)cs2)c(-c2cc(-c3n[nH]c(=O)o3)cnc2OC2CCCCC2)cn1 [Example 214] ?
109%

Then what about the molecule CCNC(=O)Nc1cc(-c2nc(C(F)(F)F)cs2)c(-c2cncc(-c3nn(C(=O)N(C)C)c(=O)o3)c2)cn1 [Example 158] ?
97%

Then what about the molecule CCCNC(=O)Nc1cc(-c2nc(C(F)(F)F)cs2)c(-c2cc(-c3nnc(C)o3)cnc2OCCN2CCCC2)cn1 [Example 168] ?
69%

Then what about the molecule CCNC(=O)Nc1cc(-c2nc(C(F)(F)F)cs2)c(-c2cc(OCC)nc(-c3n[nH]c(=O)o3)c2)cn1 [Example 75] ?
99%

Then what about the molecule CCNC(=O)Nc1cc(-c2nc(C(F)(F)F)cs2)c(-c2cncc(S(N)(=O)=O)c2)cn1 [Example 23] ?
110%

Then what about the molecule CCNC(=O)Nc1cc(-c2nc(C(F)(F)F)cs2)c(-c2cnc(OC)c(-c3n[nH]c(=O)o3)c2)cn1 [Example 189] ?
103%

Then what about the molecule CCNC(=O)Nc1cc(-c2nc(C(F)(F)F)cs2)c(-c2cc(-c3nnc(C)o3)cnc2OCCN(C(C)C)C(C)C)cn1 [Example 116] ?
90%

Then what about the molecule CCNC(=O)Nc1cc(-c2nc(C(F)(F)F)cs2)c(-c2cncc(C3=NCCO3)c2)cn1 [Example 26] ?
105%

Then what about the molecule CCNC(=O)Nc1cc(-c2nc(C(F)(F)F)cs2)c(-c2cc(-c3n[nH]c(=O)o3)cnc2OCCC2CCCN2C)cn1 (stereo not shown) [Example 224] ?
94%

Then what about the molecule CCNC(=O)Nc1cc(-c2nc(C(F)(F)F)cs2)c(-c2ccc(-c3n[nH]c(=O)o3)nn2)cn1 [Example 191] ?
99%

Then what about the molecule CCNC(=O)Nc1cc(-c2nc(-c3cnn(C)c3)cs2)c(-c2cc(-c3nnc(C)o3)cnc2OC2CCOCC2)cn1 [Example 231] ?
96%

Then what about the molecule CCNC(=O)Nc1cc(-c2nc(-c3cccc(OC)n3)cs2)c(-c2cncc(S(N)(=O)=O)c2)cn1 [Example 247] ?
100%

Then what about the molecule CCNC(=O)Nc1cc(-c2nc(C(F)(F)F)cs2)c(-c2cncc(-c3nnc([C@@H](N)C4CCCCC4)o3)c2)cn1 [Example 238] ?
96%

Then what about the molecule CCNC(=O)Nc1cc(-c2nc(C(F)(F)F)cs2)c(-c2cc(-c3n[nH]c(=O)o3)cnc2OCCN2CCCC2)cn1 [Example 186] ?
110%

Then what about the molecule CCNC(=O)Nc1cc(-c2nc(C(F)(F)F)cs2)c(-c2cncc(-c3nnc(C)o3)c2)cn1 [Example 1] ?
99%

Then what about the molecule CC(C)NC(=O)Nc1cc(-c2nc(C(F)(F)F)cs2)c(-c2cncc(-c3n[nH]c(=O)o3)c2)cn1 [Example 42] ?
106%

Then what about the molecule CCNC(=O)Nc1cc(-c2nc(C(F)(F)F)cs2)c(-c2cncc(-c3nnc(C(F)F)[nH]3)c2)cn1 [Example 256] ?
103%

Then what about the molecule CCNC(=O)Nc1cc(-c2nnc(-c3ccccc3)o2)c(-c2ncc(-c3n[nH]c(=O)o3)s2)cn1 [Example 194] ?
101%

Then what about the molecule CCNC(=O)Nc1cc(-c2nc(C(F)(F)F)cs2)c(-c2cc(-c3n[nH]c(=O)o3)cnc2OCCN(C)C)cn1 [Example 100] ?
98%

Then what about the molecule CCNC(=O)Nc1cc(-c2nc(C(F)(F)F)cs2)c(-c2cc(-c3nnc(C)o3)cnc2CC)cn1 [Example 73] ?
97%

Then what about the molecule CCNC(=O)Nc1cc(-c2nc(C(F)(F)F)cs2)c(-c2cncc(-c3nn(C)c(=O)o3)c2)cn1 [Example 140] ?
97%

Then what about the molecule CCNC(=O)Nc1cc(-c2nc(C(F)(F)F)cs2)c(-c2ccnc(-c3nnc([C@H]4COCCN4)o3)c2)cn1 [Example 243] ?
122%

Then what about the molecule CCNC(=O)Nc1cc(-c2nc(C(F)(F)F)cs2)c(-c2cncc(-c3nnc(N4CC(O)C4)o3)c2)cn1 [Example 182] ?
99%
